Could you please report measured Emax for the items listed next?
experimental-system: human orexin type 2 receptor (hOX2R) (Homo sapiens (Human), UniProt O43614)
Sequence (O43614 whole entry): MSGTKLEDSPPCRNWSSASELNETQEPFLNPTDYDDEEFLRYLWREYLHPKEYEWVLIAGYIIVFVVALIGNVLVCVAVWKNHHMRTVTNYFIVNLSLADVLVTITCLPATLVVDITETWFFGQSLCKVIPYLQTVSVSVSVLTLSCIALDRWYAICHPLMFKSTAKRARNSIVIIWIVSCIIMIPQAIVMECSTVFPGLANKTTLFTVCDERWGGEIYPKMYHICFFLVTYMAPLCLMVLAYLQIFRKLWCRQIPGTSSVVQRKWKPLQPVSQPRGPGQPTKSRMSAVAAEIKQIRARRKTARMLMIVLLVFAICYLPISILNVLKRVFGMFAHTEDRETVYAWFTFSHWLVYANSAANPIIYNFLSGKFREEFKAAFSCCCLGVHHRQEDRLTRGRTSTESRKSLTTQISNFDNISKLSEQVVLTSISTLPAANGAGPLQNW
experiment-notes: Measurement of orexin type 2 receptor agonist activity (Experimental Example 2-1, FLIPR TETRA, intracellular Ca2+)
Type: cell-based
condition-summary: CHO dhfr- cells expressing hOX2R, FLIPR TETRA, Fluo-4AM; read-out: Emax (%)
Excerpt: To obtain a cell clone stably expressing human orexin type 2 receptor, human orexin type 2 receptor cDNA was inserted into pcDNA3.1(+) plasmid vector (Invitrogen), and a plasmid DNA for expression of human orexin type 2 receptor (pcDNA3.1(+)/hOX2R) was cloned. The plasmid DNA was introduced into CHO-dhfr cell by an electroporation method, and human orexin type 2 receptor expressing clone cells were obtained by limiting dilution method by using G418 drug resistance as a selection marker. […]

Identify measured Emax associated with CS(=O)(=O)N[C@H]1CCCN(C(=O)CO)[C@H]1CO[C@H]1CC[C@@H](c2c(F)ccc(F)c2F)CC1 [Example 340]
109%

Identify measured Emax associated with CCNC(=O)N1CCC[C@H](NS(C)(=O)=O)[C@@H]1COC1CCC(c2ccccc2)C1 (relative stereo) [Example 339]
101%

Identify measured Emax associated with COC(=O)N1CCC[C@H](NS(C)(=O)=O)[C@@H]1COC1CCN(c2c(Cl)cccc2Cl)CC1 (relative stereo) [Example 186]
86%

Identify measured Emax associated with CCNC(=O)N1CCC[C@H](NS(C)(=O)=O)[C@@H]1CO[C@H]1CO[C@@H](c2ccccc2)OC1 (relative stereo) [Example 140]
92%

Identify measured Emax associated with CS(=O)(=O)N[C@H]1CCCN(C(=O)CC(F)(F)F)[C@H]1CO[C@H]1CC[C@@H](c2ccccc2)CC1 [Example 306]
101%

Identify measured Emax associated with COC(=O)N1CCC[C@H](NS(C)(=O)=O)[C@@H]1CO[C@H]1CC[C@@H](c2cccc(OC(F)(F)F)c2)CC1 (relative stereo) [Example 298]
92%

Identify measured Emax associated with CS(=O)(=O)N[C@H]1CCCN(C(=O)C2CCCCC2)[C@H]1COC1CCN(c2ccccc2F)CC1 (relative stereo) [Example 236]
86%

Identify measured Emax associated with CS(=O)(=O)N[C@H]1CCCN(C(=O)OCC(F)(F)F)[C@H]1CO[C@H]1CC[C@@H](c2cccc(F)c2)CC1 [Example 276]
95%

Identify measured Emax associated with CCNC(=O)N1CCC[C@H](NS(C)(=O)=O)[C@@H]1COC1CCC(OC)CC1 (relative stereo) [Example 126]
85%

Identify measured Emax associated with CS(=O)(=O)N[C@H]1CCCN(C(=O)[C@H]2CCOC2)[C@H]1CO[C@H]1CC[C@@H](c2ccccc2)CC1 [Example 149]
100%

Identify measured Emax associated with CS(=O)(=O)N[C@H]1CCCN(C(=O)C2CC2)[C@H]1CO[C@H]1CC[C@@H](c2c(F)ccc(F)c2F)CC1 [Example 258]
101%

Identify measured Emax associated with CCOC(=O)N1CCC[C@H](NS(C)(=O)=O)[C@@H]1CO[C@H]1CC[C@@H](c2ccccc2)CC1 [Example 303]
102%

Identify measured Emax associated with C[C@H](O)C(=O)N1CCC[C@H](NS(C)(=O)=O)[C@@H]1CO[C@H]1CC[C@@H](c2ccccc2)CC1 [Example 188]
97%

All figures here come from patent US10287305B2.
